Catalogue of pIC50 values
# Measured On: Acetylcholinesterase (Bos taurus)
# Sequence (P23795 whole entry): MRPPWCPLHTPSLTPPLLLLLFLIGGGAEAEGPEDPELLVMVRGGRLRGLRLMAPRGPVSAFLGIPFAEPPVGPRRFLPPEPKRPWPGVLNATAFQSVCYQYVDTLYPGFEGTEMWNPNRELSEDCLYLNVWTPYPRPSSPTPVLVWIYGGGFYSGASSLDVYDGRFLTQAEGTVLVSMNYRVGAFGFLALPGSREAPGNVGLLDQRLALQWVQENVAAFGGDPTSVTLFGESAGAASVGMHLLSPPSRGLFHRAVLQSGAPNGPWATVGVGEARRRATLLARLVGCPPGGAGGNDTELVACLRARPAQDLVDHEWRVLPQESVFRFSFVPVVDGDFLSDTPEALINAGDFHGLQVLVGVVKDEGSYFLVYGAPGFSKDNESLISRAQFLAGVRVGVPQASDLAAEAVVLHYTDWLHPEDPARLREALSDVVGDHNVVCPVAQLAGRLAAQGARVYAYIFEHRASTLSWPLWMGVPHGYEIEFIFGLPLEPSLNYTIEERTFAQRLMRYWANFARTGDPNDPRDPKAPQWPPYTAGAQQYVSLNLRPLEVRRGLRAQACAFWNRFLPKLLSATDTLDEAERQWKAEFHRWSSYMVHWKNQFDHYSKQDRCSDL
# Test Details: Inhibition of bovine erythrocytes AChE using acetylthiocholine iodide as substrate by Ellman's methods
pIC50: −log10 of the molar value.
Measured Metric: pIC50

[[record]]
smiles_data = "CCOC(=O)c1c(C)nc2nc3c(c(N)c2c1-c1ccccc1)CCCC3"
assay_result = 6.09

[[record]]
smiles_data = "CCOC(=O)c1c(C)nc2nc3c(c(N)c2c1-c1ccc(OC)cc1)CCCC3"
assay_result = 5.05

[[record]]
smiles_data = "CCOC(=O)c1c(C)nc2nc3c(c(N)c2c1-c1ccccc1)CCCCC3"
assay_result = 4.68

[[record]]
smiles_data = "CCOC(=O)c1c(C)nc2nc3c(c(N)c2c1-c1ccccc1)CCC3"
assay_result = 4.92


----------
# Measured On: Voltage-gated calcium channel
Decide using IC50 alone. Strictly below 20 µM: Criterion met. Equal to or above 20 µM: Criterion not met.

[[record]]
smiles_data = "CCOC(=O)c1c(C)nc2nc3c(c(N)c2c1-c1ccc(OC)c(OC)c1)CCCCC3"
label_value = "Criterion met"

[[record]]
smiles_data = "CCOC(=O)c1c(C)nc2nc3c(c(N)c2c1-c1ccc(F)cc1)CCCCC3"
label_value = "Criterion met"

[[record]]
smiles_data = "CCOC(=O)c1c(C)nc2nc3c(c(N)c2c1-c1ccc(C)cc1)CCCCC3"
label_value = "Criterion not met"

[[record]]
smiles_data = "CCOC(=O)c1c(C)nc2nc3c(c(N)c2c1-c1cccc([N+](=O)[O-])c1)CCCC3"
label_value = "Criterion met"

[[record]]
smiles_data = "CCOC(=O)c1c(C)nc2nc3c(c(N)c2c1-c1cccc(OC)c1)CCCC3"
label_value = "Criterion met"


----------
// values below are reported pIC50
# Measured On: Cholinesterase (Homo sapiens, UniProt P06276)
# Sequence (P06276 whole entry): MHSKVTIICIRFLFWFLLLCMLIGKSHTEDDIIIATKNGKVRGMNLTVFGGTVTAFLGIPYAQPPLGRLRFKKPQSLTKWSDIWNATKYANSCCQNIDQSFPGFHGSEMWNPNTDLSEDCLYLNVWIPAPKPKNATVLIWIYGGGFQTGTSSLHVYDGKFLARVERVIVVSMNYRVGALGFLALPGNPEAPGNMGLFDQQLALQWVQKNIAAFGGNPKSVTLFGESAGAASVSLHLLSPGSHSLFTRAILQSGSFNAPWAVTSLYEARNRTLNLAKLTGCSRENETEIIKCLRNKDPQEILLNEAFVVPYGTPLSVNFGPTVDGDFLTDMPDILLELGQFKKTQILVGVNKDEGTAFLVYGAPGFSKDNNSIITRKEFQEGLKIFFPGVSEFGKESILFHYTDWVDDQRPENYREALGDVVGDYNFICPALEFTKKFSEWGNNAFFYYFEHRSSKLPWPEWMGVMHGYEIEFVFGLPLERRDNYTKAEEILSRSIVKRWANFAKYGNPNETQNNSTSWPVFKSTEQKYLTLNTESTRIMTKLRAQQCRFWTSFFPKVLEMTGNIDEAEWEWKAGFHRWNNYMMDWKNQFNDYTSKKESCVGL
pIC50: −log10 of the molar value.
Measured Metric: pIC50

[[record]]
smiles_data = "CCOC(=O)c1c(C)nc2nc3c(c(N)c2c1-c1cccc([N+](=O)[O-])c1)CCCC3"
assay_result = 4.68

[[record]]
smiles_data = "Cc1nc2nc3c(c(N)c2c(-c2ccccc2)c1C(=O)OC(C)C)CCCC3"
assay_result = 4.92

[[record]]
smiles_data = "CCOC(=O)c1c(C)nc2nc3c(c(N)c2c1-c1ccccc1)CCCC3"
assay_result = 5.30

[[record]]
smiles_data = "CCOC(=O)c1c(C)nc2nc3c(c(N)c2c1-c1ccc(Cl)cc1)CCCC3"
assay_result = 4.28

[[record]]
smiles_data = "CCOC(=O)c1c(C)nc2nc3c(c(N)c2c1-c1ccc(F)cc1)CCCC3"
assay_result = 4.92

[[record]]
smiles_data = "CCOC(=O)c1c(C)nc2nc3c(c(N)c2c1-c1cccc(OC)c1)CCCC3"
assay_result = 4.51

